Test system: H9
Assay notes: Percentage of gag protein expression using H9 cells at 200 uM on 7th day
Format: functional, Homo sapiens
Expression overview
Put down the number, then write its unit next to it.

O=c1[nH]cnc2c1ncn2[C@H]1CC[C@@H](CO)O1; 0%
OCC1CC(F)C(n2cnc3c(O)ncnc32)O1 (centres undefined); 7%
Nc1ncnc2c1ncn2[C@@H]1O[C@H](CO)C[C@@H]1F; 0%

Query block: Requested field: Expression. Item: Nc1ncnc2c1ncn2[C@H]1CC[C@@H](CO)O1
Result block: 0%

---

System: H9
Assay notes: Percentage of gag protein expression using H9 cells at 100 uM on 10th day
Assay type: functional, Homo sapiens
Recorded endpoint: Expression

# annotated cases, reported Expression shown
OCC1CC(F)C(n2cnc3c(O)ncnc32)O1 (centres undefined); 12%
Nc1ncnc2c1ncn2[C@@H]1O[C@H](CO)C[C@@H]1F [LODENOSINE]; 34%
O=c1[nH]cnc2c1ncn2[C@H]1CC[C@@H](CO)O1 [DIDANOSINE]; 0%

In the following, a different molecule is considered.
Query block: Sample Nc1ncnc2c1ncn2[C@H]1CC[C@@H](CO)O1 — what was its Expression?
Result block: 0%
